System: BT-549 breast
Test: NCI-60 one-dose screen, 48 h
Conditions: 10 µM unless noted
About 83,000 compounds went through this panel and 20% of them were active in at least one assay; those are over-represented in the sample as a whole. Activity calls are given as the source filed them. Rule for the calls: active = growth percent below 10; inactive = the rest.
Lab note: assign the record to one of active, inactive

These recorded examples may help you get a feel for the data.
[
  {
    "COMPOUND": "COc1ccc(C2CC(c3ccc(Nc4ccnc5cc(Cl)ccc45)cc3)=NN2C(C)=O)cc1 (stereo not given)",
    "QUALITATIVE LABEL": "inactive"
  },
  {
    "COMPOUND": "CCCCCc1c(C)[nH]c(/C=C2\\N=C(c3ccc[nH]3)C=C2OCc2ccccc2)c1C",
    "QUALITATIVE LABEL": "active"
  },
  {
    "COMPOUND": "N#CC(C#N)C(C#N)C#N",
    "QUALITATIVE LABEL": "inactive"
  },
  {
    "COMPOUND": "CC(=O)Nc1c(Cl)cc2c(c1Cl)Cc1cc([N+](=O)[O-])ccc1-2",
    "QUALITATIVE LABEL": "inactive"
  }
]

Now for a further compound.
Returns: the outcome recorded for O=c1ncc(-c2ccc(C(F)(F)F)cc2)c(NC2CCCCCC2)[nH]1 in this assay.
inactive

###

System: OVCAR-3 ovarian
Experiment: NCI-60 one-dose screen, 48 h
Details: 10 µM unless noted
About 83,000 compounds went through this panel and 20% of them were active in at least one assay; those are over-represented in the sample as a whole. Activity calls are given as the source filed them. The calls were made as follows: active = growth percent below 10; inactive = the rest.
Lab note: assign the record to one of active, inactive

[
  {
    "COMPOUND": "CCN(CC)CCNCC(=O)Oc1ccc(/C=C/C(=O)CC(=O)/C=C/c2ccc(OC(=O)CNCCN(CC)CC)c(OC)c2)cc1OC",
    "TARGET DESC": "OVCAR-3 ovarian",
    "QUALITATIVE LABEL": "inactive"
  },
  {
    "COMPOUND": "CC[C@H]1CN2CCc3cc(OC)c(OC)cc3C2C[C@@H]1CC1NCCc2cc(OC)c(OC)cc21 (some centres not stated)",
    "TARGET DESC": "OVCAR-3 ovarian",
    "QUALITATIVE LABEL": "active"
  },
  {
    "COMPOUND": "CCOC(=O)C1C(=O)NC(C(=O)OCC)(C(=O)OCC)C1CC (configuration not stated)",
    "TARGET DESC": "OVCAR-3 ovarian",
    "QUALITATIVE LABEL": "inactive"
  },
  {
    "COMPOUND": "COc1ccc(NS(=O)(=O)N2CCCCC2)cc1",
    "TARGET DESC": "OVCAR-3 ovarian",
    "QUALITATIVE LABEL": "inactive"
  },
  {
    "COMPOUND": "c1ccc(Nc2ccc(Nc3nc(-c4ccccc4)nc4ccccc34)cc2)cc1",
    "TARGET DESC": "OVCAR-3 ovarian",
    "QUALITATIVE LABEL": "inactive"
  }
]

Returns: the outcome recorded for O=C(NN1C(=O)c2cc(C(=O)O)c(C(=O)O)cc2C1=O)c1ccncc1 in this assay.
inactive

Returns: the outcome recorded for Oc1c(N=Nc2nn[nH]n2)ccc2ccccc12 in this assay.
inactive

Returns: the outcome recorded for CN[C@@H]1C(OC2[C@H](O[C@H]3[C@H](O)[C@@H](O)[C@H](N=C(N)N)[C@@H](O)[C@@H]3N=C(N)N)OC(C)[C@]2(O)CO)OC(CO)C(O)C1O (some centres not stated) in this assay.
inactive

Returns: the outcome recorded for CN1C(=O)C(C2=NN(C=O)C(c3ccc(F)cc3)C2)C(=O)N(C)C1=O (configuration not stated) in this assay.
inactive

Returns: the outcome recorded for Cc1ccc(OCC(=O)Nc2ccc(Oc3ccccc3)cc2)c([N+](=O)[O-])n1 in this assay.
inactive

Returns: the outcome recorded for COc1cccc(C=Nc2cc(C(C)C)c(O)cc2C)c1O in this assay.
inactive

Returns: the outcome recorded for COC(=O)c1cc2c(/C=C3/NC(=S)NC3=O)coc2n1C in this assay.
inactive

Returns: the outcome recorded for CC[C@@H](C)/C=C(C)/C=C/C(=O)c1c(O)c(-c2ccc(O)cc2)cn(OC2CC(=O)CCC(C)OC(=O)CC2O)c1=O (some centres not stated) in this assay.
inactive

Returns: the outcome recorded for CN(C)CCCN=c1cc2c(=O)n(CCCN(C)C)c(=O)c3c(NCCCN(C)C)cc4c(O)n(CCCN(C)C)c(=O)c1c4c3-2 in this assay.
active

Returns: the outcome recorded for O=C(Nc1ccccc1)c1cc(-n2cnc([N+](=O)[O-])c2)cc(-n2cnc([N+](=O)[O-])c2)n1 in this assay.
inactive

Returns: the outcome recorded for C=C1CCC2C(C)(COC(=O)CC)C(OC(=O)CC)CCC2(C)C1C/C=C1/C(=O)OCC1OC(=O)CC (configuration not stated) in this assay.
active

Hey, just so you know, these numbers are from PubChem BioAssay (NCI).
